Provide the reported relative viability of each item.
- System: SW 1573
- measurement description: relative viability (nuclei count vs DMSO), 5 days (fraction); higher = more cells survive
- test conditions: first compound 0.1265 µM
Give bare numbers.

Previously resolved entries follow.
- compound: "COc1cc(N2CCC(C(N)=O)CC2)ccc1Nc1nc(N)c(Cl)c(Nc2ccccc2S(=O)(=O)C(C)C)n1 [HG-5-88-01] + CC1(C)CCC(c2ccc(Cl)cc2)=C(CN2CCN(c3ccc(C(=O)NS(=O)(=O)c4ccc(N[C@H](CCN5CCOCC5)CSc5ccccc5)c(S(=O)(=O)C(F)(F)F)c4)cc3)CC2)C1 [Navitoclax] (partner 0.5 µM)"
  study target: "SW 1573"
  measurement kind: "relative viability"
  reading: 1.05
- compound: "Clc1ccc(Nc2nnc(Cc3ccncc3)c3ccccc23)cc1 [Vatalanib] + COc1cccc2cc(-c3nc([C@H]4CC[C@H](C(=O)O)CC4)n4ncnc(N)c34)[nH]c12 [OSI-027] (partner 0.5 µM)"
  study target: "SW 1573"
  measurement kind: "relative viability"
  reading: 0.574
- compound: "COc1cc(N2CCC(C(N)=O)CC2)ccc1Nc1nc(N)c(Cl)c(Nc2ccccc2S(=O)(=O)C(C)C)n1 [HG-5-88-01] + Cc1nc(Nc2ncc(C(=O)Nc3c(C)cccc3Cl)s2)cc(N2CCN(CCO)CC2)n1 [Dasatinib] (partner 0.075 µM)"
  study target: "SW 1573"
  measurement kind: "relative viability"
  reading: 0.426

API: the following record is the query input.
Input C[C@@H]1CN(CC(=O)Nc2ccc3c(c2)Cc2cccc(-c4cc(=O)cc(N5CCOCC5)o4)c2S3)C[C@H](C)O1 + CC(=O)Nc1cccc(-n2c(=O)n(C3CC3)c(=O)c3c(Nc4ccc(I)cc4F)n(C)c(=O)c(C)c32)c1 [Trametinib] (partner 0.02 µM) , output reported relative viability.
0.564

---

- System: PC-3 [JPC-3]
- measurement description: relative viability (nuclei count vs DMSO), 5 days (fraction); higher = more cells survive
- test conditions: first compound 8 µM
measurement kind: relative viability
Give bare numbers.

- compound: "CCCCCCCCCCCC1=C(O)C(=O)C=C(O)C1=O [Embelin] + Cc1nc(Nc2ncc(C(=O)Nc3c(C)cccc3Cl)s2)cc(N2CCN(CCO)CC2)n1 [Dasatinib] (partner 0.075 µM)"
  study target: "PC-3 [JPC-3]"
  relative viability: 0.966
- compound: "CCCCCCCCCCCC1=C(O)C(=O)C=C(O)C1=O [Embelin] + O=C(CCCCCCC(=O)Nc1ccccc1)NO [Vorinostat] (partner 1 µM)"
  study target: "PC-3 [JPC-3]"
  relative viability: 0.604

Provide relative viability for all items below, preserving their order.
1. CCCCCCCCCCCC1=C(O)C(=O)C=C(O)C1=O [Embelin] + O=C(c1cc(Cc2n[nH]c(=O)c3ccccc23)ccc1F)N1CCN(C(=O)C2CC2)CC1 [Olaparib] (partner 8 µM)
2. CCCCCCCCCCCC1=C(O)C(=O)C=C(O)C1=O [Embelin] + C[C@]1(O)C[C@@H](c2nc(-c3ccc4ccc(-c5ccccc5)nc4c3)c3c(N)nccn32)C1 [Linsitinib] (partner 1 µM)
3. CCCCCCCCCCCC1=C(O)C(=O)C=C(O)C1=O [Embelin] + CC1(C)CCC(c2ccc(Cl)cc2)=C(CN2CCN(c3ccc(C(=O)NS(=O)(=O)c4ccc(N[C@H](CCN5CCOCC5)CSc5ccccc5)c(S(=O)(=O)C(F)(F)F)c4)cc3)CC2)C1 [Navitoclax] (partner 0.5 µM)

1. 1.07
2. 0.983
3. 0.72
